The binders listed here are annotated with their glycan array binding signal (z-score).
Target: GlcNAc(b1-6)GalNAc
Test: glycan array binding signal (z-score within array); higher = stronger binding
Details: glycan notation: IUPAC condensed, linker removed
Many of the other results were omitted from the sample, so the strongest signals are more common in it than they were.
Please give only the number in your answer, with no unit.

| binder | glycan array binding signal (z-score) |
| --- | --- |
| CC1G-11630 (Coprinopsis cinerea), A8P462 (protein) MTTEAKIKLKAVVYWELVFDYDNSSNTGEITQSYTVKISQTSTRSTFASEVSTTTIDTLTKNNQEVDVGASYGAISANVSASWEHSEEVNNMLEKTTQTSTEDTYTVETEETRSYTIGPGGMLSLFQKHFSGPGMHVAFDVFTTDLELAKERTEIDIDVDVEAIRFVREIRVVYTDIMSEAPGDHVREINGKNPDINYGFNGKFVWLVPEQTRKTAQALTNVEFVSQAESDDRYWDLAAGAGGSNRYLIPVYDTNNKDKIYELALWRSDSYITHDKVKAAGWSGTTGDINSGRGGTYLNLVWKTRHAY | -0.182 |
| Crocus Lectin (Crocus vernus), Q9FVA1 (protein) MAKSLVLSSLLLALLLAAPLASLADNNVLLTGDVLHTDNQLSFESAAFVMQGDCNLVLYNEAGGFQSNTHGRGVGCTLRLNNFGQLEIHSANSNTPVWVSLRNGIPVRGDYAAVLGPDQHVTIYGPAIWSTPAPNRHERGATVSNIPRVRNVLFSSQVMSDNAQLATRDYSLVMRDDCNLALTKGSKTNIVWESGTSGRGQHCFMRLGHTGLIEISDDRLNTVWRSNTVGQEGDYVLILQINGQAVVYGPAVWSTASPARGGASAAL | -0.175 |
| CREG (Mus musculus), O88668 (protein) MAARAPELARSLLAALLAPALVALLVSPASGRGGRDHGDWDVDRRLPPLPPREDGPRVARFVTHVSDWGSLATISTIKEVRGWPFADIISISDGPPGEGTGEPYMYLSPLQQAVSDLQENPEATLTMSLAQTVYCRNHGFDPQSPLCVHIMMSGTVTKVNKTEEDYARDSLFVRHPEMKHWPSSHNWFFAKLKISRIWVLDYFGGPKVVTPEEYFNVTLQ | -0.035 |
| Gal 1 (Canis lupus) (protein) MACGLVASNLSLKPGQCLRVQCEVVPEAKSFVLNLGKDGDNLCLHFNPRFEAHGDVNTIVCNSKDGGAWGEELRESAFPFQPGTVTEVCISFDQADLTIKLPDGYTFKFPNRLNLEAISYLAADGDMKIKCLAFD | -0.33 |
| MGL (Homo sapiens), Q8IUN9 (protein) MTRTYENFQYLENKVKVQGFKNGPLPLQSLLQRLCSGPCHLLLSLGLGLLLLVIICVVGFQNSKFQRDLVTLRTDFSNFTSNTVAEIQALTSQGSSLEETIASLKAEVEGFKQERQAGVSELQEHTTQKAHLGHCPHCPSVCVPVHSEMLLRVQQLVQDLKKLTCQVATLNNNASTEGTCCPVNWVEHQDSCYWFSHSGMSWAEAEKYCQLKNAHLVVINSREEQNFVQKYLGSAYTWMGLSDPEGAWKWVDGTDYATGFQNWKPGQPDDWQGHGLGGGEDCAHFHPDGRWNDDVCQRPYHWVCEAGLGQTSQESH | 4.7 |

Next binder, glycan array binding signal (z-score) to be filled in.
Q: Data request, read-out glycan array binding signal (z-score), for LSECtin (Homo sapiens), Q6UXB4 (protein) MEQESALRELRERVTQGLAEAGRGREDVRTELFRALEAVRLQNNSCEPCPTSWLSFEGSCYFFSVPKTTWAAAQDHCADASAHLVIVGGLDEQGFLTRNTRGRGYWLGLRAVRHLGKVQGYQWVDGVSLSFSHWNQGEPNDAWGRENCVMMLHTGLWNDAPCDSEKDGWICEKKAQLLTPPSALEPRPLQHVVSWGLLTSLAPGADCQRVFSSSSTAAESQKHLAQHSPVQPSAWALGPPCRPHPNSTHADPT
Ans: -0.174
